System: Bacillus subtilis
method-summary: Inhibition of Bacillus subtilis N-terminal hexahistidine-tagged FtsZ GTPase activity expressed in Escherichia coli BL21 (DE3) assessed as residual activity at 100 uM after 1 hr relative to control
# label = class 1 if Activity < 50% else class 0

COc1cc2oc(-c3ccc(O)cc3O)cc2c(OC)c1CC=C(C)C : class 1
COc1c(CC=C(C)C)c(O)cc(O)c1-c1coc2cc(O)ccc2c1=O : class 0
CC(C)=CCc1cc(-c2oc3cc(O)cc(O)c3c(=O)c2O)ccc1O : class 1
COc1cc2oc(=O)c(-c3ccc(O)cc3O)cc2c(OC)c1CC=C(C)C : class 1
COc1c(CC=C(C)C)c(O)cc2oc(=O)c(-c3ccc(O)cc3O)cc12 : class 0
CCN(CC)CCNc1nc(/C=C/c2ccc(Cl)cc2)nc2cc3ccccc3cc12 : class 1
CC(C)=CCc1cc(-c2coc3cc(O)cc(O)c3c2=O)cc(O)c1O : class 0
COc1c(CC=C(C)C)c(O)cc2oc(-c3ccc(O)cc3O)cc12 : class 0
